experiment: gradient 5% acetonitrile 3 min, to 50% in 2 min, to 85% in 15 min, held 3 min, 100 µL/min; details: column: Zorbax Extend-C18 2.1 x 50 mm; eluents: water / acetonitrile, 0.1% formic acid
In this section we review reported RP-LC retention time values for a set of compounds.
# output: bare number, implied unit s

Answered cases to consult:
Compound	RP-LC retention time / s
CCc1nc2cc(-c3noc(COc4ccccc4)n3)ccc2o1	1060
COc1cccc2cc(C(=O)NCC3CCN(C(=O)c4snnc4C)CC3)oc12	697
CN1C(=O)CCc2cc(NC(=O)c3cccs3)ccc21	671

Req: Dear colleague, I am looking for the recorded RP-LC retention time of the following compound: O=C(Nc1ccc(F)c(Cl)c1)N1CCCC1c1nc(-c2ccc(F)cc2F)no1 (stereo not given)
Resp: 1070

Req: Same thing, different compound: `CCc1nnc(-c2cc(NC(=O)C3CCN(C(C)=O)CC3)c(C)s2)o1`
Resp: 697

Req: Same thing, different compound: `O=C(NCc1ccccc1F)c1ccc2c(c1)Sc1ncccc1C(=O)N2C1CC1`
Resp: 794

Req: Same thing, different compound: `COc1ccc(-c2nc(-c3ccc4ncn(C(C)C)c4c3)no2)c(C)c1`
Resp: 881

Req: Same thing, different compound: `CC(C)CCn1nc2c(S(=O)(=O)N3CCCCCC3)cccn2c1=O`
Resp: 982

Req: Same thing, different compound: `CN(CCNC(=O)c1cc(S(=O)(=O)N2CCCCC2)ccc1Cl)Cc1ccccc1`
Resp: 711

Req: Same thing, different compound: Cc1ccc(Cl)c2c1NC(=O)C2(O)CC(=O)c1ccccc1 (stereo not given)
Resp: 760

Req: Same thing, different compound: `CNC(=O)[C@@H](NC(=O)[C@H](CC(C)C)[C@H](O)C(=O)NO)C(C)(C)C`
Resp: 620

Req: Same thing, different compound: `COc1ccc(-c2nc3cc(C)ccn3c2NC(=O)CC(C)C)cc1`
Resp: 628

Req: Same thing, different compound: `CC(C)CN1CCn2cc(S(=O)(=O)N3CCN(c4ccccc4)CC3)cc2C1=O`
Resp: 921

Req: Same thing, different compound: `O=C(CCc1nnc2c3cc(-c4ccc(F)cc4)nn3ccn12)NCCN1CCCC1`
Resp: 605

Req: Same thing, different compound: `Cc1cc(C)cc(S(=O)(=O)Nc2ccc3nc(N4CCN(C)CC4)cc(C(=O)O)c3c2)c1`
Resp: 612

Req: Same thing, different compound: `COc1cc(CC(=O)N2CCc3cc(-c4ccno4)ccc32)cc(OC)c1`
Resp: 921

Req: Same thing, different compound: COCC(C)(O)CNS(=O)(=O)c1ccc(F)cc1C (stereo not given)
Resp: 674
